Numbers sourced from a collection of fitness landscapes (doi:10.1016/j.celrep.2020.107928).

B1: Caulobacter ParB omega fusion; a variant is named by its letters at X, in order, B8GW30 (parent)
chain: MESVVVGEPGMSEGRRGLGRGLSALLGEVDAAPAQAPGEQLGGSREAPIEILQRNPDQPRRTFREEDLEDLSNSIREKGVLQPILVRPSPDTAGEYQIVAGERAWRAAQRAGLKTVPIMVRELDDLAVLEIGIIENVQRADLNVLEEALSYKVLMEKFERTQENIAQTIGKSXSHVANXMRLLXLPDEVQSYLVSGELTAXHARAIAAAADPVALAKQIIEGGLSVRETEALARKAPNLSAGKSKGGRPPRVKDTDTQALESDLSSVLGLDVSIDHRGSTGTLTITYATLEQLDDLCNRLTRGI

- Variants of: B1
- PROCEDURE TEXT: one-hybrid fitness for binding parS DNA (scaled: cognate 1, non-cognate 0); higher = stronger binding
- EXPERIMENTAL CONTEXT: with parS DNA site
Whole data set: some 81,000 sequences, median “one-hybrid fitness for binding parS DNA” near -0.17, cut for the highest 2% near 0.51. This excerpt belongs to a sample that is enriched for the highest values.
This listing pairs variants with measured one-hybrid fitness for binding parS DNA.

1. SRAR :: ≤ 0.2
2. RKGR :: ≤ 0.2
3. QSHN :: ≤ 0.2
4. PNWL :: ≤ 0.2

Request: Which measured one-hybrid fitness for binding parS DNA value corresponds to QMTR ?
Result: ≤ 0.2

Request: YNTM
Result: ≤ 0.2
